system: LOX (Sus scrofa)
method_description: LOX enzyme assay (Promega ROS-Glo, cadaverine substrate)
Assay type: biochemical, pig
measurement_setup: Table 6; 1 h preincubation
Property: IC50; scope: individual molecules

Cn1cc(-c2cc(S(C)(=O)=O)cc(S(=O)(=O)c3csc(CN)n3)c2)cn1 [Compound 22c]	> 100 µM

Input line: # value lookup — system LOX (Sus scrofa), readout IC50, item CS(=O)(=O)c1cc(-c2ccccc2)cc(S(=O)(=O)c2csc(CN)n2)c1 [Compound 22b]
Output line: > 100 µM

----------
system: DAO (Sus scrofa)
Sequence (Q9TRC7 25-755): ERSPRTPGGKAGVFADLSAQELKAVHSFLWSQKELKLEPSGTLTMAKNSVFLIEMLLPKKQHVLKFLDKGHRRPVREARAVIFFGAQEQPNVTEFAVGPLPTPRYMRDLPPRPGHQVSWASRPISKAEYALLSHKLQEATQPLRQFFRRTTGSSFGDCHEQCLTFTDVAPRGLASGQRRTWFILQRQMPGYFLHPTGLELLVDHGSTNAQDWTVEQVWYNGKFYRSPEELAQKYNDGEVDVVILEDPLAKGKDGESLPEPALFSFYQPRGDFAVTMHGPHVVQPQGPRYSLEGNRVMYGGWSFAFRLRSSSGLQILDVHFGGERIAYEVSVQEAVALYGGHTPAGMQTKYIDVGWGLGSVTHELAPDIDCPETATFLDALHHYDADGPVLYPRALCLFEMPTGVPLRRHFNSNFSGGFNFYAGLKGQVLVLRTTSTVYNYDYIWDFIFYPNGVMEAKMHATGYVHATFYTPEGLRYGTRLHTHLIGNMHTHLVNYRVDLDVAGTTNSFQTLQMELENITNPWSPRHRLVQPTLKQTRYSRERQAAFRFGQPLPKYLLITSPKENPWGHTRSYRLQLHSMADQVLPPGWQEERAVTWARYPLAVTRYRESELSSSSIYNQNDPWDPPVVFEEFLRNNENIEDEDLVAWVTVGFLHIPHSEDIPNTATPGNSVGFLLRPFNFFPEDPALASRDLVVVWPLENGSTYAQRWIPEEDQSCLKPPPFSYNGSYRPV
pIC50: −log10 of the molar value.
measured_quantity: pIC50

Please review the entries below; each comes with its answer.
Cn1cc(-c2cc(S(C)(=O)=O)cc(S(=O)(=O)c3cnc(CN)s3)c2)cn1 [Compound 21a]	< 4.00
CS(=O)(=O)c1cc(-c2ccccc2)cc(S(=O)(=O)c2csc(CN)n2)c1 [Compound 22b]	< 4.00

Input line: Field request: pIC50 | item: Cn1cc(-c2cc(S(C)(=O)=O)cc(S(=O)(=O)c3csc(CN)n3)c2)cn1 [Compound 22c]
Output line: < 4.00

----------
Listed next: entries and their corresponding IC50.
system: LOXL2 (Homo sapiens, UniProt Q9Y4K0)
method_description: LOXL2 enzyme assay (Promega ROS-Glo, cadaverine substrate)
Type: biochemical
measurement_setup: read-out: LOXL2 IC50
The reply should consist of the numeric value with the unit placed after it.

The cases that follow already have their IC50 on record.
N#CCCN [BAPN, β-aminopropionitrile, reference compound]	665 nM
Cn1cc(-c2cc(Cl)cc(S(=O)(=O)c3cnc(CN)s3)c2)cn1 [Compound 21d]	280 nM

# next molecule below
Input line: // query IC50 value for entry CS(=O)(=O)c1cc(Sc2cnc(CN)s2)cc(-c2ccccc2)c1 [Compound 7d]
Output line: 233 nM

----------
system: LOXL2 (Homo sapiens, UniProt Q9Y4K0)
Sequence (Q9Y4K0 26-774): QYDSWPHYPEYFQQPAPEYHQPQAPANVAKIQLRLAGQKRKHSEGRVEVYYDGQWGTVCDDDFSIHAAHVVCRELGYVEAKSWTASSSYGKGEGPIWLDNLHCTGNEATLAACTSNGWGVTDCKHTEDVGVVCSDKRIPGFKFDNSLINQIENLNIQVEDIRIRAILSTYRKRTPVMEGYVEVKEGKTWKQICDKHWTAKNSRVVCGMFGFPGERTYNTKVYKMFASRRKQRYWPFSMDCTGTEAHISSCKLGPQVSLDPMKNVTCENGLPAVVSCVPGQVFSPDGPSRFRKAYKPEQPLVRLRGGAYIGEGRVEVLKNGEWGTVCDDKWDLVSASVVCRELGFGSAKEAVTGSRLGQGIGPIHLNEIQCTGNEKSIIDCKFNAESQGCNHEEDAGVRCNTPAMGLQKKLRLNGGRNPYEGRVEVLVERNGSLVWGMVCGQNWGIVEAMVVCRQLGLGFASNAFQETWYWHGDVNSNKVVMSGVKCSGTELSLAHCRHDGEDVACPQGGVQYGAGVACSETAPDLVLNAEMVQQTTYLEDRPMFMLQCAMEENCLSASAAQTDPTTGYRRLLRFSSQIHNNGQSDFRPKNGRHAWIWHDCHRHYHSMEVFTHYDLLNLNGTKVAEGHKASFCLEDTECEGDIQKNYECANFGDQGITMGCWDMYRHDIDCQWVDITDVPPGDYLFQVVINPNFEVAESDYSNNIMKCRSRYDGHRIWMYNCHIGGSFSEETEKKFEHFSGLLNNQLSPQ
method_description: LOXL2 enzyme assay (Promega ROS-Glo, cadaverine substrate)
Assay type: biochemical
measurement_setup: read-out: LOXL2, 3 h, IC50
measured_quantity: pIC50
Remember the convention: pIC50 equals -log10 of concentration in molar.

Input line: Would you kindly share the measured pIC50 for N#CCCN [BAPN, β-aminopropionitrile, reference compound] ?
Output line: 6.43

----------
system: LOX (Sus scrofa, UniProt P45845)
Sequence (P45845 1-249): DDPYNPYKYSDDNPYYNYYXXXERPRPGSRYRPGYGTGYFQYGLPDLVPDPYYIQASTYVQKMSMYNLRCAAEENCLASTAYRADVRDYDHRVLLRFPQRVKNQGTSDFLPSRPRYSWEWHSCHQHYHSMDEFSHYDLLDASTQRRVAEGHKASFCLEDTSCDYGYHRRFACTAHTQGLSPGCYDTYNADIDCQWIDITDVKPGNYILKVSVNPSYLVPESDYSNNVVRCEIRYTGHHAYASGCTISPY
method_description: LOX enzyme assay (Promega ROS-Glo, cadaverine substrate)
Assay type: biochemical, pig
measurement_setup: supplementary csv; unit inferred
# IC50 values compiled below

Cn1cc(-c2cc(S(C)(=O)=O)cc(S(=O)(=O)c3csc(CN)n3)c2)cn1 [Compound 22c]	> 100 µM

Could you now look at the following compound, please?
Input line: Query: IC50; subject: CS(=O)(=O)c1cc(-c2ccccc2)cc(S(=O)(=O)c2csc(CN)n2)c1 [Compound 22b]
Output line: > 100 µM

----------
method_description: In vivo PK, mouse
measurement_setup: mouse plasma; single po dose 50 mg/kg
measured_quantity: Cmax (µM)
Entry rule: numbers only, all in µM.

Input line: Please give the measured Cmax for this molecule: Cn1cc(-c2cc(F)cc(S(=O)(=O)c3cnc(CN)s3)c2)cn1 [Compound 21e]
Output line: 9.75

----------
system: SSAO (Homo sapiens)
Construct: purchased Sigma
Sequence (Q16853 whole entry): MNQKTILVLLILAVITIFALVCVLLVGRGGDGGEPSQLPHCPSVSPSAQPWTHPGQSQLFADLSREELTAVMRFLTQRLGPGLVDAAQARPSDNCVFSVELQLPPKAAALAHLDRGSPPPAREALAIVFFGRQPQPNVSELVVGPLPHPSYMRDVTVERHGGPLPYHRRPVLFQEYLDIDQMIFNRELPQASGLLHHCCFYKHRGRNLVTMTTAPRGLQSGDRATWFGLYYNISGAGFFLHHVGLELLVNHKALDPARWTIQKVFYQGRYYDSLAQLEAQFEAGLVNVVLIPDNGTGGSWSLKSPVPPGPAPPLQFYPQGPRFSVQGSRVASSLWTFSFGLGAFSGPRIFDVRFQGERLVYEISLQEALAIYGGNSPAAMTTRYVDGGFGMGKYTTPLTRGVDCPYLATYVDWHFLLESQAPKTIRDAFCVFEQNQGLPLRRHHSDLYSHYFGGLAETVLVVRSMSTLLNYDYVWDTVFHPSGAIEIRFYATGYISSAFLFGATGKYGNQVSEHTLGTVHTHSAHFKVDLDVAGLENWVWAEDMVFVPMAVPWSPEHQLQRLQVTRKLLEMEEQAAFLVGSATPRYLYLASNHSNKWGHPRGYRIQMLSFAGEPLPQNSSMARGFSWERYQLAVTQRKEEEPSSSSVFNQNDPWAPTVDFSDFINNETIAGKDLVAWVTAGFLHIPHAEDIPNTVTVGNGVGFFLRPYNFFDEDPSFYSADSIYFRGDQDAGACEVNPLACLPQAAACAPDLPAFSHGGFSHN
Type: biochemical
measurement_setup: Table 7
pIC50: −log10 of the molar value.
Reported pIC50 values are given for each entry in this list.

CS(=O)(=O)c1cc(-c2ccccc2)cc(S(=O)(=O)c2csc(CN)n2)c1 [Compound 22b]	< 4.00

Input line: Please report the recorded pIC50 for Cn1cc(-c2cc(S(C)(=O)=O)cc(S(=O)(=O)c3csc(CN)n3)c2)cn1 [Compound 22c] .
Output line: < 4.00

----------
system: LOX (Sus scrofa)
Sequence (P45845 1-249): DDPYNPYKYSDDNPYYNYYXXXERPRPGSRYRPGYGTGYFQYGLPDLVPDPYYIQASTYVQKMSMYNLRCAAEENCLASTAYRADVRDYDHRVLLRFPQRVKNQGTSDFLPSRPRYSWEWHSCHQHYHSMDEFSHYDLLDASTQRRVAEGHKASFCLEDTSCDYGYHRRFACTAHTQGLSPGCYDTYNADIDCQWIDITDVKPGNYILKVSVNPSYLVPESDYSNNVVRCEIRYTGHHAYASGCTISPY
method_description: LOX enzyme assay (Promega ROS-Glo, cadaverine substrate)
Assay type: biochemical, pig
measured_quantity: pIC50
pIC50 is a log-scale quantity: -log10 of the concentration expressed in molar.

Input line: # lookup: pIC50 of N#CCCN [BAPN, β-aminopropionitrile, reference compound]
Output line: 5.50
